Quick reference for TGI among some compounds
- Tested on: NCI/ADR-RES ovarian
- assay.explanation: NCI tumour cell line growth inhibition, 48 h

Solved entries (count: 3):
- compound: "COc1cc(OC(=O)c2ccccc2)cc2c1C(=O)C=CC2=O"
  TGI: "> 88.6 µM"
- compound: "O=C1/C(=C/c2cccc(F)c2)CCCc2ccccc21"
  TGI: "33.1 µM"
- compound: "COc1ccc(-c2c[nH]c(C(=O)O)c2-c2cc(OC)c(OC)c(OC)c2)cc1"
  TGI: "> 100 µM"

For the compound O=C1/C(=C/c2cccc(Br)c2)CCc2ccccc21 , the measured TGI on NCI/ADR-RES ovarian was 33.2 µM

For the compound Cc1csc2[n+]1C(=O)/C(=C\c1ccc([N+](=O)[O-])cc1)S2 , the measured TGI on NCI/ADR-RES ovarian was 63.6 µM

For the compound COc1cc2ccc(/C=C\[N+](=O)[O-])cc2cc1OC , the measured TGI on NCI/ADR-RES ovarian was 17.2 µM

For the compound CC(C)(C)OC(=O)N1CCN(CCn2cc(C(F)(F)F)c3c(Cl)ncnc32)CC1 , the measured TGI on NCI/ADR-RES ovarian was 67.7 µM

For the compound CCOC(CN(C)C(=O)Nc1cccc2ccccc12)OCC , the measured TGI on NCI/ADR-RES ovarian was > 10 µM

For the compound O=C1c2ccccc2C(O)(O)C1(O)C1(O)C(=O)c2ccccc2C1(O)O (stereo unspecified) , the measured TGI on NCI/ADR-RES ovarian was > 100 µM

###

- Test system: MALME-3M melanoma
- assay.explanation: NCI tumour cell line growth inhibition, 48 h
Quick reference for TGI among some compounds

Solved entries (count: 5):
- compound: "O=c1[nH]c2cc([N+](=O)[O-])ccc2nc1/C(=N/Nc1ccccc1)C(O)c1ccccc1Cl (stereo not given)"
  experimental.target: "MALME-3M melanoma"
  TGI: "> 100 µM"
- compound: "COc1cc(NC(C)CCCNC2CN3CCC2CC3)c2ncccc2c1 (stereo not given)"
  experimental.target: "MALME-3M melanoma"
  TGI: "24.3 µM"
- compound: "Cc1c(C(N)=O)sc2c1C(=O)N(Cc1ccccc1)C1=NN=C(c3ccc(Cl)cc3)CN12"
  experimental.target: "MALME-3M melanoma"
  TGI: "16.4 µM"
- compound: "CC(C)[C@H](N)C(=O)N1CCC[C@H]1B(O)O"
  experimental.target: "MALME-3M melanoma"
  TGI: "> 100 µM"
- compound: "Cn1cc(C(=O)NCCC(=N)N)cc1NC(=O)C1=[N+](C)C=C(NC(=O)c2cccc(C(=O)NC3=CC(C(=O)Nc4cc(C(=O)NCCC(=N)N)cn4C)=[N+](C)C3)c2)C1"
  experimental.target: "MALME-3M melanoma"
  TGI: "> 100 µM"

In the following, a different compound is considered.
Reported TGI for CC(C)(C)c1ccc(Oc2nccc(-c3c(-c4ccc(F)cc4)ncn3C3CCNCC3)n2)cc1 was 9.38 µM

###

Quick reference for TGI among some compounds
- Tested on: HCT-116 colon
- assay.explanation: NCI tumour cell line growth inhibition, 48 h
Field: numeric (µM). Do not append units.

Solved entries (count: 3):
- query.smiles: "O=C1/C(=C/c2cccc(Br)c2)CCc2ccccc21"
  TGI [µM]: 19.9
- query.smiles: "Cc1c(C(N)=O)sc2c1C(=O)N(Cc1ccccc1)C1=NN=C(c3ccc(Cl)cc3)CN12"
  TGI [µM]: 14.5
- query.smiles: "COc1cc(OC(=O)c2ccccc2)cc2c1C(=O)C=CC2=O"
  TGI [µM]: 13.5

Reported TGI for NC(N)=N/N=C/c1c(-c2ccc(Cl)cc2)nc2sccn12 was 2.95

###

- Test system: HCT-116 colon
- assay.explanation: NCI tumour cell line growth inhibition, 48 h; in the data active = GI50 below about 0.43 µM; inactive = the rest
A correct response names exactly one class from active, inactive

- compound: "C=C1C(=O)O[C@H]2[C@H]1CC/C(COC(=O)NCc1cn(C)c3ccccc13)=C\\CC[C@@]1(C)O[C@@H]21"
  category: "active"
- compound: "COc1ccc2nc3cccc([N+](=O)[O-])c3c(NCCCCCC(=O)O)c2c1"
  category: "active"
- compound: "COc1cc(NC(C)CCCNC2CN3CCC2CC3)c2ncccc2c1 (centres undefined)"
  category: "inactive"
- compound: "O=C(CCCCCCCCC(=O)N/N=C\\c1ccccc1O)N/N=C\\c1ccccc1O"
  category: "inactive"
- compound: "O=C([CH-]C(=O)c1ccccc1)c1ccccc1.O=C([CH-]C(=O)c1ccccc1)c1ccccc1.[La+3].[OH-].[OH3+]"
  category: "inactive"
- compound: "C=C1C(=O)O[C@H]2[C@H]1CC/C(COC(=O)NCc1ccc(Cn3c(=O)sn(CCCl)c3=O)cc1)=C\\CC[C@@]1(C)O[C@@H]21"
  category: "inactive"
- compound: "Cc1cc(O)c(C(C)C)cc1S(=O)(=O)O (tested in a mixture with another compound)"
  category: "active"
- compound: "C=C(C)C(=O)Nc1ccc(NC(C)C)cc1"
  category: "inactive"

Now let's try a different one.
Hi, sorry to bother you, what did the test record for CN(O)c1nc(N(C)O)nc(N2CCOCC2)n1 ?
inactive

###

- System: MDA-MB-435
- assay.explanation: NCI tumour cell line growth inhibition, 48 h
Quick reference for TGI among some compounds

For the compound CC(C)Cn1cnc2c(NCC(C)O)nc3ccccc3c21 (configuration not stated) , the measured TGI on MDA-MB-435 was > 100 µM

For the compound CSc1nc(C#N)c(/N=C\N(C)C)n1C , the measured TGI on MDA-MB-435 was > 100 µM

For the compound CNC1=C(C)C(=O)C(=O)C([C@H](C)CCC=C(C)C)=C1O , the measured TGI on MDA-MB-435 was > 100 µM

For the compound OC1(c2cccs2)c2cccc(Cl)c2C(O)(c2cccs2)c2c(Cl)cccc21 (configuration not stated) , the measured TGI on MDA-MB-435 was > 100 µM

For the compound COc1cc(O)c2c(=O)cc(-c3ccc(O)cc3O)oc2c1CC=C(C)C , the measured TGI on MDA-MB-435 was > 100 µM

For the compound CNc1ncnc2c1ncn2C1C=CC(COS(N)(=O)=O)C1 (configuration not stated) , the measured TGI on MDA-MB-435 was > 100 µM

For the compound Cc1ccc2c(c1)[nH]c(=S)n2/C=C1\C(=O)Oc2ccccc2C1=O , the measured TGI on MDA-MB-435 was > 100 µM

For the compound C=C(C)C1=CCC[C@]2(C1)N=C(OC)[C@@H](C(C)C)N=C2OC , the measured TGI on MDA-MB-435 was > 100 µM

For the compound CCOC(=O)c1cccn1S(=O)(=O)c1cc(Cl)ccc1NC(=O)CC , the measured TGI on MDA-MB-435 was > 100 µM

###

Quick reference for log10(TGI) among some compounds
- Test system: SK-MEL-2 melanoma
- assay.explanation: NCI tumour cell line growth inhibition, 48 h
Units before log transform: µM; reported quantity: TGI; transform: log10.

Solved entries (count: 5):
- query.smiles: "CCC[CH2][Sn]1([CH2]CCC)[O]C(=O)c2cccnc2[O]1"
  log10(TGI): 0.58
- query.smiles: "CC(C)(C)c1ccc(Oc2nccc(-c3c(-c4ccc(F)cc4)ncn3C3CCNCC3)n2)cc1"
  log10(TGI): 0.96
- query.smiles: "CC(C)N(Cc1ccccc1)c1c(S)ssc1=S"
  log10(TGI): 1.49
- query.smiles: "C=C1c2ccccc2C(=O)c2c1c1c(C(=O)OC)c(O)ccc1n2Cc1ccccc1"
  log10(TGI): 0.38
- query.smiles: "Cn1cc(-c2nc(-c3c[nH]c4ccncc34)cs2)c2cc(Br)ccc21"
  log10(TGI): 0.56

Reported log10(TGI) for COc1ccc2[nH]cc(CCNC(=O)[C@H](Cc3ccccc3)NC(=O)[C@@H](NCC(F)(F)F)C(C)C)c2c1 was 1.58

Reported log10(TGI) for Cc1cc2c(cc1C)N(C(=O)CCl)CC(=O)N2 was 1.16

Reported log10(TGI) for Cc1ccc(S(=O)(=O)N/N=C/c2c(O)ccc3ccccc23)cc1 was 1.69

###

- System: DU-145 prostate
- assay.explanation: NCI tumour cell line growth inhibition, 48 h
Quick reference for TGI among some compounds

- compound: "CCOC(=O)P(=O)(O)c1ccc(N(C)Cc2ccccc2)cc1"
  meas.value: "> 100 µM"
- compound: "CC(C)N(Cc1ccccc1)c1c(S)ssc1=S"
  meas.value: "28.7 µM"
- compound: "CCOC(CN(C)C(=O)Nc1cccc2ccccc12)OCC"
  meas.value: "> 10 µM"
- compound: "O=C(NC1=NCC(CN2CCN(c3ccccc3)CC2)O1)Nc1ccccc1 (configuration not stated)"
  meas.value: "> 100 µM"
- compound: "CC(C)(C)OC(=O)N1CCN(CCn2cc(C(F)(F)F)c3c(Cl)ncnc32)CC1"
  meas.value: "9.2 µM"
- compound: "Cc1nn2c(/C=C3\\C(=O)Nc4ccc(Cl)cc43)c(C)nc2s1"
  meas.value: "> 100 µM"
- compound: "Cc1csc2c(=O)n(C3OC(CO)C(O)C3O)c(=O)[nH]c12 (configuration not stated)"
  meas.value: "> 100 µM"
- compound: "O=C1CCCCC/C1=C\\c1cccc(Cl)c1"
  meas.value: "> 100 µM"
- compound: "N#Cc1c(-c2ccccc2)cc(-c2ccccc2)n(C2OC(CO)C(O)C(O)C2O)c1=S (configuration not stated)"
  meas.value: "> 100 µM"
- compound: "O=C1c2cc(Cl)ccc2-n2cnnc2C2CSCN12 (configuration not stated)"
  meas.value: "> 100 µM"

Reported TGI for COC(=O)C1(CCC(C)=O)CCCCCC1=O (configuration not stated) was > 100 µM

Reported TGI for C=C(C)C(=O)Nc1ccc(NC(C)C)cc1 was > 100 µM
